Target: 15-hydroxyprostaglandin dehydrogenase [NAD(+)] (Homo sapiens)
Assay: qHTS Assay for Inhibitors of HPGD (15-Hydroxyprostaglandin Dehydrogenase); note: % is set by controls: 0 for no effect and ±100 for the full control effect
Settings: purified HPGD, NADH fluorescence kinetic, PGE2 substrate; stronger effect = lower value
Hit rate of the full screen: of about 150,000 compounds, about 6,500 (4.3%) were called active. Another 12% or so got no clear call; they are omitted. The list comes from a sample in which actives are over-represented; it also holds close analogues and randomly drawn compounds.
I'd appreciate it if you could supply activity change, negative = inhibition values for the items below.

Q) Can you look up the measured activity change, negative = inhibition of COc1ccc(NC(=S)N2CCCC(CO)C2)c(OC)c1 (stereo not drawn) for me?
A) -2.74% (inactive)

Q) What about CCc1nnc(NC(=O)c2cccs2)s1 ?
A) -9.46% (inactive)

Q) Follow-up entry: CN(C)C(CNC(=O)c1ccc(S(=O)(=O)NCc2ccco2)cc1)c1ccccc1 (stereo not drawn)
A) -10.1% (inactive)

Q) And then COc1ccc(N2CCN(Cc3cc(=O)oc4ccc5ccccc5c34)CC2)cc1 , what is it?
A) -9.86% (inactive)

Q) Try this molecule next: O=C(NNc1ccccn1)c1ccc(Cl)nc1
A) -23% (inactive)

Q) Next molecule: S=C(Nc1cccc(Cl)c1)Nc1ccc2cn[nH]c2c1
A) -14.3% (inactive)

Q) Next up: C/C(=N\NS(=O)(=O)c1ccc(Cl)cc1)c1ccc(NC(=O)c2ccco2)cc1
A) -18.3% (inactive)

Q) And for CSC1=N/C(=C\c2ccc3c(c2)OCO3)C(=O)S1 ?
A) -15.7% (inactive)

Q) Now this one: CCNC(=O)NC(=O)C(C)OC(=O)C1CCN(S(=O)(=O)c2ccccc2F)CC1 (stereo not drawn)
A) -13.3% (inactive)

Q) Another molecule to look at: CCCCC1S/C(=N/N=C/c2cccs2)NC1=O (stereo not drawn)
A) -7.59% (inactive)

Q) Proceed to NC(=O)Nc1ccccc1C(=O)NCCc1ccccc1
A) -3.92% (inactive)

Q) Again, but for CCCCNS(=O)(=O)c1ccc2nc(SCC(=O)Nc3cc(C)cc(C)c3)[nH]c2c1
A) -21.1% (inactive)

Q) Follow-up item: N#Cc1cccc(CS(=O)(=O)c2nnnn2-c2cc(C(F)(F)F)cc(C(F)(F)F)c2)c1
A) -8.91% (inactive)

Q) What about this molecule? CCc1ccccc1NC(=O)c1cccs1
A) -5.77% (inactive)

Q) And CCc1nnc(NS(=O)(=O)c2ccc(NS(=O)(=O)c3ccccc3)cc2)s1 ?
A) 2.28% (inactive)

Q) Now consider Cc1onc(-c2c(Cl)cccc2Cl)c1C(=O)c1c[nH]c(C(=O)NC2CC2)c1 .
A) -1.05% (inactive)

Q) Next entry: COC(=O)C1=C(C)N(C)C(=S)NC1c1ccccc1 (stereo not drawn)
A) -10.8% (inactive)

Q) And for COc1ccc(-c2nn(-c3ccccc3)cc2/C=N/Nc2ccccn2)cc1OC ?
A) -26.3% (inactive)

Q) And what about the molecule COc1cc(OC)nc(NC(=O)CCl)n1 ?
A) -16.6% (inactive)

Q) How about O=C(Nc1ccon1)c1cccc(Cl)c1 ?
A) -28.3% (inactive)

Q) Check Cc1cccc(NC(=O)CSc2nnc(NC(=O)CN3CCOCC3)s2)c1 too.
A) -8.48% (inactive)

Q) Consider next the molecule O=c1c2ccccc2oc2nc(C3CCCCC3)n(Cc3ccco3)c(=O)c12 in the same way.
A) -6.04% (inactive)

Q) Also check Cc1nn(-c2ccccc2)c2sc(C(=O)N(Cc3ccco3)C(C)C(=O)NC(C)(C)C)cc12 (stereo not drawn)
A) -12.4% (inactive)
